# TARGET_OR_SYSTEM: T1, Biotinylated murine VEGF-164 (Acro Biosystem) (mouse, UniProt Q00731-2 27-190, biotinylated (site not stated))
# T1 construct: Bought protein; also called Mouse VEGF164; mouse VEGFA
# T1 sequence (looked up): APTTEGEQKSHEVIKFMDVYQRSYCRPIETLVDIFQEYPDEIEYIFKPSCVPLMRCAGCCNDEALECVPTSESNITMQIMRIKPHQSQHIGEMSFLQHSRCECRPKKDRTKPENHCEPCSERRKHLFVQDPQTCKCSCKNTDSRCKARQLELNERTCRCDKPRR
# EXPERIMENT_NOTES: BLI, biotinylated antigen on streptavidin tips, 1:1 global fit
# Description: Binding characterization was performed using BLI (Satorius) at RT with a 1000 rpm flow-rate. Biotinylated human VEGF-165 (Acro Biosystem) was immobilized onto Streptavidin-coated tips at a concentration of 3 μg/mL for 60 sec in BLI buffer (0.1% BSA and 0.01% Tween-20 in PBS). […] The background buffer signal was subtracted using the 0 nM concentration reference, and the kinetics of binding were calculated using a global fit following a 1:1 binding model, using BLI Analysis Software. […]
MEASURED_METRIC: koff (s⁻¹)

- BINDER: "13A6 (VHH, Autonomous humanised VH domain (DotBody); also called anti-VEGF DotBody 13A6; clone 13A6) VHH: EVQLVESGGGLVQPGGSLRLSCAISGFSLAATDIDWVRQAPGKGLEWVARIFPSAGSTDYADSVKGRFTISADTSKNTVYLQMNSLRAEDTAVYYCGRSDSYSYNVFLHNPTYTALDYRGQGTLVTVSS"
  MEASURED_RESULT: 0.0104
- BINDER: "23D5.1 (VHH, Autonomous humanised VH domain (DotBody), from the 16C2.1-based library without heat challenge; E. coli, ATG codon 5' (possible initiator Met), 3' hexahistidine tag; also called DotBody 23D5.1) VHH: EVQLVESGGGLVQPGGSLRLSCAISGFDLATTDIDWVRQAPGKGLEWVARIFRPSDFTDYADSVKGRFTISADTSKNTVYLQMNSLRAEDTAVYYCVRPDSYAYNILFVTRTFNALHYRGQGTLVTVSS"
  MEASURED_RESULT: 0.00169
- BINDER: "21E6.1 (VHH, Autonomous humanised VH domain (DotBody), from the 16C2.1-based library with heat challenge; E. coli, ATG codon 5' (possible initiator Met), 3' hexahistidine tag; also called DotBody 21E6.1) VHH: EVQLVESGGGLVQPGGSLRLSCAISGFTLAATDIDWVRQAPGKGLEWVARIFTPTGFSDYADSVKGRFTISADTSKNTVYLQMNSLRAEDTAVYYCGIPELYAYNIFMDIPAYNDVYYRGQGTLVTVSS"
  MEASURED_RESULT: 0.00117
- BINDER: "21D9.1 (VHH, Autonomous humanised VH domain (DotBody), from the 16C2.1-based library with heat challenge; E. coli, ATG codon 5' (possible initiator Met), 3' hexahistidine tag; also called DotBody 21D9.1) VHH: EVQLVESGGGLVQPGGSLRLSCAISGFSLGATDIDWVRQAPGKGLEWVARIFSPSDFTDYADSVKGRFTISADTSKNTVYLQMNSLRAEDTAVYYCSRPDTYAYNIFPHTASHGAFNYRGQGTLVTVSS"
  MEASURED_RESULT: 0.00243
